Test system: Escherichia coli BW25113
experiment: plate-normalized OD600 growth (mean of duplicates) (OD600 (normalized)); higher = more growth (less inhibition)
experimental-context: temperature: 37°C; 24 h; 10 µM
In all, about 1,600 compounds were measured (“plate-normalized OD600 growth (mean of duplicates)”: median about 0.31, lowest 2% from about 0.23 on). Only a selection was taken, and the lowest values are over-represented in it overall.
I'd be grateful if you could share measured plate-normalized OD600 growth for these entries.
Answers are plain numbers.

For every item below, please supply its plate-normalized OD600 growth.
1. O=S(=O)(c1ccc(Cl)c(Cl)c1)N1CCCCC1
2. O=C1CCCc2c1nn(-c1ccccc1)[n+]2[O-]

1. 0.619
2. 0.618

For every item below, please supply its plate-normalized OD600 growth.
1. Cc1n[nH]c(C)c1CCCCOc1ccc(Br)cc1
2. Cc1ccc(OCCCCc2c(C)n[nH]c2C)cc1
3. COc1ccccc1NS(=O)(=O)c1ccc(Cl)cc1
4. CCOc1ccccc1N1CCN(C(=O)c2ccccc2C)CC1
5. CCN(CC)CCCOc1ccc(C)cc1

0.601
0.62
0.651
0.646
0.632

For every item below, please supply its plate-normalized OD600 growth.
1. Cc1ccccc1OCCCCN1CCCCC1
2. N#CC1=C(N)OC2=C(C(=O)CCC2)C1c1cccnc1 (stereo not drawn)
3. CC1(C)CC(=O)C=C(Nc2ccc(F)c(F)c2)C1
4. Fc1ccccc1OCCCCN1CCCCC1

1. 0.623
2. 0.629
3. 0.617
4. 0.61

For every item below, please supply its plate-normalized OD600 growth.
1. Cc1cc(C)c(S(=O)(=O)Nc2cc(C)on2)c(C)c1
2. c1ccc(OCCCCN2CCCCC2)cc1

1. 0.612
2. 0.621
